molecular target: T1, recombinant endotrophin protein (Homo sapiens, UniProt P12111); test: Affinity measurement with BLI (Octet RED96); settings: Octet (96-Red), 1:1 binding model
T1 construct: the latter consisting of 77 amino acids at the carboxy-terminal of the COL6α3 chain; CD33 signal peptide (N, cleaved yes); His-tag with EK-cleavage site (N, cleaved yes); purchased Sino Biological, Beijing, China; host or cells: HEK293
T1 sequence (P12111 3101-3177): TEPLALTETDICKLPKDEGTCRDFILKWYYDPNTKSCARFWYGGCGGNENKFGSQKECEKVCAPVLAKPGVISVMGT
Below: a set of entries, each annotated with reported kdis.

Use these answered entries as a reference point.
Molecule	Recorded endpoint	Endpoint result
ETP-mAb4.5: humanized IgG1 version of ETPmAb4; VH SEQ ID NO: 162, VL SEQ ID NO: 158 (antibody, V domains shown, human IgG1 constant regions) VH: EVQLLESGGGLVQPGGSLRLSCAASGFTFSSGYYICWVRQAPGKGLEWIACIYGGNSNPYYANWVNGRFTISRDNSKNTLYLQMNSLRAEDTAVYYCARKDINIGGAYELWGQGTLVTVSS VL: DIQMTQSPSSLSASVGDRVTITCQASQSISSSYLSWYQQKPGKAPKLLIYKASTLASGVPSRFSGSGSGTDFTLTISSLQPEDFATYYCQYSDWANSYGNAFGGGTKVEIK	kdis	2.23 E−04 1/s
ETP-mAb4: rabbit monoclonal anti-human endotrophin antibody selected for further study; VH SEQ ID NO: 125, VL SEQ ID NO: 126 (antibody, V domains shown) VH: SSRVKESGGDLVKPGASLTLTCKASGFSFSSGYYICWVRQAPGKGLEWIACIYGGNNNPYYANWVNGRFTTSKTSSTTVTLQMTNLTGADTATYFCARKDINIGGAYELWGPGTLVTISS VL: ELVMTQTPASVSEPVGGTVTINCQASQSISSSYLSWYQQKPGQPPKLLIYKASTLASGVPSRFKGSGSGTQFSLTISDLECADAATYYCQYSDWANSYGNAFGGGTEVVVK	kdis	2.49 E−04 1/s

### Prompt Report kdis for ETP-mAb4.2: humanized IgG1 version of ETPmAb4; VH SEQ ID NO: 159, VL SEQ ID NO: 158 (antibody, V domains shown, human IgG1 constant regions) VH: EVQLLESGGGLVQPGGSLRLSCAASGFSFSSGYYICWVRQAPGKGLEWIACIYGGNSNPYYANWVNGRFTISRDNSKNTLYLQMNSLRAEDTAVYYCARKDINIGGAYELWGQGTLVTVSS VL: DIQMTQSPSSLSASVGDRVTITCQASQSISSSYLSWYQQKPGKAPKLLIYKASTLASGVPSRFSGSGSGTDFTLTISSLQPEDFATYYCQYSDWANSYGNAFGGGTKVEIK please.
### Response 3.05 E−04 1/s

### Prompt Report kdis for ETP-mAb4.4: humanized IgG1 version of ETPmAb4; VH SEQ ID NO: 161, VL SEQ ID NO: 158 (antibody, V domains shown, human IgG1 constant regions) VH: EVQLLESGGGLVQPGGSLRLSCAASGFSFSSGYYICWVRQAPGKGLEWIACIYGGNNNPYYANWVNGRFTTSRDNSKNTLYLQMNSLRAEDTAVYYCARKDINIGGAYELWGQGTLVTVSS VL: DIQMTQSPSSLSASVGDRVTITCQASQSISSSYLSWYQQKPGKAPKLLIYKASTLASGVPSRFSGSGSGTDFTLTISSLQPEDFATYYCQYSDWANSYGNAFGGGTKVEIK please.
### Response 3.28 E−04 1/s

### Prompt Report kdis for ETP-mAb4.1: humanized IgG1 version of ETPmAb4; VH SEQ ID NO: 157, VL SEQ ID NO: 158 (antibody, V domains shown, human IgG1 constant regions) VH: EVQLLESGGGLVQPGGSLRLSCAASGFSFSSGYYICWVRQAPGKGLEWIACIYGGNNNPYYANWVNGRFTISRDNSKNTLYLQMNSLRAEDTAVYYCARKDINIGGAYELWGQGTLVTVSS VL: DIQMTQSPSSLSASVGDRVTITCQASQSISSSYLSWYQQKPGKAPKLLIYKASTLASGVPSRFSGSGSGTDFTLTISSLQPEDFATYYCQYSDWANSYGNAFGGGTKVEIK please.
### Response 2.35 E−04 1/s
